# Km per record follows
target: OATP8 (OATP1B3, SLCO1B3) (Homo sapiens, UniProt Q9NPD5); assay: TP_TRANSPORTER: uptake in OATP8-expressing HEK293 cells; format: functional, cell-based; details: HEK293 cells expressing OATP8
Sequence (Q9NPD5 whole entry): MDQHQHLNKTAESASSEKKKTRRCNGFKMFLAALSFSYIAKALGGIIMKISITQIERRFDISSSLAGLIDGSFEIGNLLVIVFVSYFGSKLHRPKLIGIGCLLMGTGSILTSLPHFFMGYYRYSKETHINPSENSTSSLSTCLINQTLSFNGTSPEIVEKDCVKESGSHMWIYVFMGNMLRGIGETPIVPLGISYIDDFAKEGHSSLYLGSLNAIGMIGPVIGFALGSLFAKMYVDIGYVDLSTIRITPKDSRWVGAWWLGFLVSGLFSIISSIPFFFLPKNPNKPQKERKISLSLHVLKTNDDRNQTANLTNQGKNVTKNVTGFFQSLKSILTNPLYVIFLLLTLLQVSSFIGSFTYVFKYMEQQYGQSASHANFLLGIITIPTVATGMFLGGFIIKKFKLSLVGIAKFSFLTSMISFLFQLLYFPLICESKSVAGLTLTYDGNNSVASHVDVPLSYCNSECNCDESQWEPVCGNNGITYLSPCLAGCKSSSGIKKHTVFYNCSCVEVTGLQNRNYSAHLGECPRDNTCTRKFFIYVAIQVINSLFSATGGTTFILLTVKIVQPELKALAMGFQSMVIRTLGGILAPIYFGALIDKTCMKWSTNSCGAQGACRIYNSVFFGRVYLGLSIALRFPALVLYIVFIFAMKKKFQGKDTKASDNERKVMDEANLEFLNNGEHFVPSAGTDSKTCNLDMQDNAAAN
readoutName: Km

[[record]]
compound = "C=CC1=C(C)/C(=C/c2[nH]c(Cc3[nH]c(/C=C4\\NC(=O)C(C)=C4C=C)c(C)c3CCC(=O)O[C@@H]3OC(C(=O)O)[C@@H](O)C(O)C3O)c(CCC(=O)O)c2C)NC1=O (some centres not stated) [BILIRUBIN MONOGLUCURONIDE]"
val = "0.5 µM"

[[record]]
compound = "C[C@]12CC[C@H](OS(=O)(=O)O)CC1=CC[C@@H]1[C@@H]2CC[C@]2(C)C(=O)CC[C@@H]12"
val = "> 30 µM"

